- ASSAY PROCEDURE: Kinetic solubility assay in HBSS buffer
- Type: physicochemical
- CONDITION SET: aqueous buffer, kinetic from dmso stock; Hanks-HEPES (HBSS buffer), pH 7.4; read-out: KS (kinetic solubility)
What solubility kinetic at 1.5 h was measured for each of the following?
Answers are plain numbers, in µM.

Use these answered entries as a reference point.
COc1ccc(-c2cc3onc(-c4ccncc4)c3c(=O)n2C)cc1 [MMPIP, reference compound] ... 5.6
CCc1nc2c(o1)CC(c1ccc(C)cc1C)CC2=O (stereo not shown) [ADX71743, reference compound] ... 510
Cn1c(-c2ccccc2Cl)nc2ccc(-c3ccccc3)cc2c1=O ... 6.88

Next, consider the following molecule.
Req: Consider the molecule COc1cccc(-c2ccc3nc(-c4ccccc4Cl)n(C)c(=O)c3c2)c1OC and give its measured solubility kinetic at 1.5 h.
Resp: 15.2

====

- ASSAY SYSTEM: recombinant human mGlu7 receptor (FAST-0154C) (Homo sapiens, UniProt Q14831)
- Construct: host or cells: CHO-K1
- Sequence (Q14831 35-915): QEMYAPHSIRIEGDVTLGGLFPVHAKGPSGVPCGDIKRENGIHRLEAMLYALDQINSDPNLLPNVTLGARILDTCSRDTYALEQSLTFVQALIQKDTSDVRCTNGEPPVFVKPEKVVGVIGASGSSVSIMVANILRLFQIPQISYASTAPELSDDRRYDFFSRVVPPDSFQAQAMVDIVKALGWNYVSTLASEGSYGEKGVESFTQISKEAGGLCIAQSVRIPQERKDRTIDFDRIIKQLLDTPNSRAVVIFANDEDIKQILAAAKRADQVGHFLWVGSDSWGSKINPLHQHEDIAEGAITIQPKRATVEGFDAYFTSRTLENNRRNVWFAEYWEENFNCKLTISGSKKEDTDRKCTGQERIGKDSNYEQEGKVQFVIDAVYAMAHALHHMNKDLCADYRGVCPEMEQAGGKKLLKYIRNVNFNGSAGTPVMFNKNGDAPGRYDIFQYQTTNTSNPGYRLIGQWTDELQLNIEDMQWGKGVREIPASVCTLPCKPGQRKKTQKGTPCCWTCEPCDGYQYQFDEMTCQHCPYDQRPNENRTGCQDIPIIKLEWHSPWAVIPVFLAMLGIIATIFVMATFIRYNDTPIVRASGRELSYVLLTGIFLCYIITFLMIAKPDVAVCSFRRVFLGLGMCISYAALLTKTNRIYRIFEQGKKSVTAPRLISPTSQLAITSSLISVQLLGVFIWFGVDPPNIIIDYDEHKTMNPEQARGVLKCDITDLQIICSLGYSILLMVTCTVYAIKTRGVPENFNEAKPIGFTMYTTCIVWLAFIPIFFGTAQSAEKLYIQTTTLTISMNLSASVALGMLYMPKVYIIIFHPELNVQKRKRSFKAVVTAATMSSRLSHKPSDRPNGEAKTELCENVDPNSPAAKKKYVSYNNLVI
- ASSAY PROCEDURE: NAM mGlu7 activity on CHO-K1 cell line, cAMP HTRF (EuroscreenFast protocol)
- Assay type: cell-based
- CONDITION SET: CHO-K1 human mGlu7, agonist L-AP4 at EC80; range 1 nM – 25 µM
What % inhibition at maximal concentration was measured for each of the following?
Numbers only, in %.

Use these answered entries as a reference point.
Cn1c(-c2ccccc2Cl)nc2ccc(-c3ccccc3)cc2c1=O [ALX-065] ... 99.62
COc1cccc(-c2ccc3nc(-c4ccccc4Cl)n(C)c(=O)c3c2)c1OC [ALX-171] ... 105.21
CCc1nc2c(o1)CC(c1ccc(C)cc1C)CC2=O (stereo not shown) [ADX71743, reference compound] ... 62.42

Req: Consider the molecule COc1ccc(-c2cc3onc(-c4ccncc4)c3c(=O)n2C)cc1 [MMPIP, reference compound] and give its measured % inhibition at maximal concentration.
Resp: 100

====

- ASSAY PROCEDURE: Pharmacokinetics and brain uptake in mice after i.p. administration
- Assay type: in vivo, mouse (Albino Swiss)
- CONDITION SET: Albino Swiss, mouse, plasma and brain, ip; mice, 10 mg/kg i.p.; read-out: Tmax (plasma and brain) (converted)
MEASUREMENT TYPE: Tmax
Please answer using a numeric value trailed by its unit.

Cn1c(-c2ccccc2Cl)nc2ccc(-c3ccccc3)cc2c1=O ... 15 min

Next, consider the following molecule.
Req: Consider the molecule COc1cccc(-c2ccc3nc(-c4ccccc4Cl)n(C)c(=O)c3c2)c1OC and give its measured Tmax.
Resp: 15 min

====

- ASSAY SYSTEM: recombinant human mGlu7 receptor (Homo sapiens)
- Construct: expressed in transfected cells; host or cells: T-REx 293 (tetracycline-inducible)
- Sequence (Q14831 35-915): as above
- ASSAY PROCEDURE: NAM mGlu7 activity, forskolin-induced cAMP (HTRF) in T-REx 293 cell line
- Assay type: cell-based
- CONDITION SET: T-REx-293, 10 μM compound; forskolin-stimulated cAMP response, 5 µM LSP4-2022 (EC80); T-REx 293 human mGlu7
What inhibition at 10 µM was measured for each of the following?
Numbers only, in %.

Use these answered entries as a reference point.
CCc1nc2c(o1)CC(c1ccc(C)cc1C)CC2=O (stereo not shown) [ADX71743, reference compound] ... 42.6
COc1cccc(-c2ccc3nc(-c4ccccc4Cl)n(C)c(=O)c3c2)c1OC [ALX-171] ... 30.8
Cn1c(-c2ccccc2Cl)nc2ccc(-c3ccccc3)cc2c1=O [ALX-065] ... 26.5

Next, consider the following compound.
Req: Item: Cn1c(-c2ccccc2)nc2ccc(-c3ccccc3)cc2c1=O [ALX-063] Test system: recombinant human mGlu7 receptor (Homo sapiens) Read-out: inhibition at 10 µM Value: ?
Resp: 42.5
